Target: T1, cynomolgus BDCA2 (cynomolgus monkey, UniProt A0A2K5UWP4 1-212)
T1 construct: whole, on cells; also called Cyno BDCA2; cynoBDCA2
T1 sequence: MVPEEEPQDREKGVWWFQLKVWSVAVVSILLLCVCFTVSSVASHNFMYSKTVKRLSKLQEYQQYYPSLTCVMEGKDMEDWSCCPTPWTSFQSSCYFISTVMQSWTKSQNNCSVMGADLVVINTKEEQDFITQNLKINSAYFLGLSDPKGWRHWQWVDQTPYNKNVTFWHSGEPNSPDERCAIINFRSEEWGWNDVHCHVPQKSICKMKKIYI
Test: FACS on 293F-cynoBDCA2 cells; EC50 table under the plot, unit from the x axis (nM) [continued) d.]
PROPERTY_MEASURED: EC50 (nM)

1. mAb021 (antibody, V domains shown, Mouse hybridoma antibody) VH: DVQLQESGPGLVKPSQSLSLTCSVTGYSITSAYYWNWIRQFPGNKLECMGYITYDGNNYYSPSLKNRISITRDTSKNQFFLNLNSVTTEDTATYFCARGGDYDDGGFAFWGQGTLVTVSA VL: DIQMTQSPASLSASVGETVTITCRASGNIHNYLAWYHQKQGKSPQLLVYNAKSLVDGVPSRFSGSGSGTQYSLRINSLQPEDFGSYYCQHFWIVPYTFGGGTKLEII; 0.566
2. mAb028 (antibody, V domains shown, Mouse hybridoma antibody) VH: DVQLQESGPGLVKPSQSLSLTCSVTGYSISSGYYWNWIRQFPGNKLECMGYISYDGSNYYNPSLKNRISITRDTSKNQFFLSLNSVTTEDTATYFCVRGGDYDDGGFAYWGQGTLVTVSA VL: DIQMTQSPASLSASVGETVTITCRASGNIHNYLAWYQQKQGKSPQLLVYNAKTLADGVPSRFSGSGSETQYSLKINSLQPEDFGNYFCQHFWIIPYTFGGGTKLEIK; 0.28
3. mAb027 (antibody, V domains shown, Mouse hybridoma antibody) VH: DVQLQESGPGLVKPSQSLSLTCSVTGYSITSAYYWNWVRQFPGNQLECMGYITYDGSNNYNPSLKNRISITRDTSKNQFFLKLNSVTTEDTATYYCVRGGDYDDGGFAYWGQGTLVTVSA VL: DIQMTQSPASLSASVGETVTITCRASGNIHNYLAWYQQKQGKSPQLLVYNAKTLVDGVPSRFSGSGSGTEYSLKINSLQPEDFGIYFCQHFWIIPYTFGGGTKLEIR; 0.68
4. mAb022 (antibody, V domains shown, Mouse hybridoma antibody) VH: DVQLQESGPGLVKPSQSLSLTCSVTGYSITSGYYWNWIRQFPGNKLEWMGYISFDGTYNYNPSLKDRFSITRDTSKNQFFLKLNSVTTEDTATYYCARGVDYPKAMDWWGQGTSVTVSS VL: DIVLTQSPASLAVSLGQRATISCRASESVSMHVTHLIHWYQQKPGQPPKLLIYVASNLESGVPARFSGSGSETDFTLNIHPVEEEDAATYFCQQSFEDPWTFGGGTKLEIK; 1.96
5. mAb020 (antibody, V domains shown, Mouse hybridoma antibody) VH: DVQLQESGPGLVKPSQSLSLTCSVTGYSIASGYYWNWIRQFPGNKLEWMGYISFDGTYNYNPSLKDRFSITRDTSKNQFFLKLNSVTTEDTATYYCARGVDYPNAIDWWGQGTSVTVSS VL: DIVLTQSPASLAVSLGQRATISCRASESVSMHVTHLIHWYQQKPGQPPKLLIYVASNLESGVPARFSGSGSETDFTLNIHPVEEEDAATYFCQQSFEDPWTFGGGTKLEIK; 1.9
